Origin of measurements: PubChem BioAssay (NCI)

test method notes: NCI Yeast Anticancer Drug Screen. Data for the sgs1 mgt1 strain (AID 161);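 also: 0% = growth of cultures given vehicle only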
measurement context: S. cerevisiae sgs1 mgt1 strain, at 50.0 µM, active compounds read high
About 79,000 compounds went through this panel and 15% of them were active in at least one assay; those are over-represented in the sample as a whole.
reported property: growth inhibition (%)
I only need the number, in %, no unit after it.

Prompt line: Using known records, supply growth inhibition for COC(=O)C(Cc1ccccc1)NP(=O)(O)OCC1OC(n2cc(I)c(=O)[nH]c2=O)CC1O (stereo not drawn)
Response line: -15.2

Prompt line: Using known records, supply growth inhibition for C=C(Br)CNC(=O)Nc1ccccn1
Response line: -3.3

Prompt line: Using known records, supply growth inhibition for Cc1cc(C)c(CC#N)s1
Response line: -1.65

Prompt line: Using known records, supply growth inhibition for O=C(O)CCC(=O)Oc1ccccc1
Response line: 13.2

Prompt line: Using known records, supply growth inhibition for CC1CC2C3(C1)CC(C(=O)OC3=O)C2(C)C (stereo not drawn)
Response line: -7.35

Prompt line: Using known records, supply growth inhibition for N#CNC(=NCC1CCCO1)Nc1cccnc1 (stereo not drawn)
Response line: -26.4

Prompt line: Using known records, supply growth inhibition for C(=C\CSc1ccccn1)/CSc1ccccn1
Response line: 56.6

Prompt line: Using known records, supply growth inhibition for CC(=O)C1=CN(C)c2ccccc2S1
Response line: 12.2

Prompt line: Using known records, supply growth inhibition for CC(C)c1cccc(C(C)C)c1NC(=O)C(=O)C1SC(=S)NC1=O (stereo not drawn)
Response line: -18.9

Prompt line: Using known records, supply growth inhibition for CCOC(=O)c1c(N)n(-c2ccccc2)c(=O)n(-c2ccccc2)c1=O
Response line: -30.9

Prompt line: Using known records, supply growth inhibition for Nc1cccn2cnnc12
Response line: -4.6

Prompt line: Using known records, supply growth inhibition for O=C(/C=C\c1cccc2ccccc12)c1cccc2ccccc12
Response line: 0.55

Prompt line: Using known records, supply growth inhibition for COc1ccc(Cl)cc1NC(=O)Oc1ccc2ccccc2c1
Response line: 12.2

Prompt line: Using known records, supply growth inhibition for CC(=O)c1c(N)n(C)c(=O)n(C)c1=O
Response line: 3.55

Prompt line: Using known records, supply growth inhibition for CCCCCOc1ccc(C(=O)OC)cc1
Response line: 6.2

Prompt line: Using known records, supply growth inhibition for CSSC(SC)SC
Response line: 13.6

Prompt line: Using known records, supply growth inhibition for O=C(NCN1CCOCC1)Nc1ccc(Cl)cc1
Response line: -4.8

Prompt line: Using known records, supply growth inhibition for O=C(O)/C(=C\c1ccccc1[N+](=O)[O-])c1ccccc1
Response line: 7.45

---

Kindly supply the reported growth inhibition values for the records listed here.
test method notes: NCI Yeast Anticancer Drug Screen. Data for the mec2-1 strain (AID 157)
measurement context: S. cerevisiae mec2-1 strain, at 50.0 µM, active compounds read high
About 79,000 compounds went through this panel and 15% of them were active in at least one assay; those are over-represented in the sample as a whole.
I only need the number, in %, no unit after it.

Prompt line: Using known records, supply growth inhibition for O=Cc1cccc2ccc3cccc(C(=O)O)c3c12
Response line: 12

Prompt line: Using known records, supply growth inhibition for C=CCC1(C)C=C(C)C(=O)C(C)=C1
Response line: -7

Prompt line: Using known records, supply growth inhibition for CC1C(=O)C2C1CS2(=O)=O (stereo unspecified)
Response line: 0.65

Prompt line: Using known records, supply growth inhibition for CC(C)(Oc1ccc2c(=O)cc(-c3ccc(Cl)cc3)oc2c1)C(=O)Nc1c(Cl)cccc1Cl
Response line: -20.1

Prompt line: Using known records, supply growth inhibition for Cc1cc(C)c2nccc(/C=C/c3ccc(N(C)C)cc3)c2c1
Response line: 0.4

Prompt line: Using known records, supply growth inhibition for CCN(CC)c1ccc2c(c1)C(O)c1ccccc1-2 (stereo unspecified)
Response line: -20.4

Prompt line: Using known records, supply growth inhibition for O=C(O)c1nc2ccccc2c(=O)[nH]1
Response line: -4.25

Prompt line: Using known records, supply growth inhibition for N#CCc1nc2ccccc2[nH]1
Response line: -6.95

Prompt line: Using known records, supply growth inhibition for CC12CCC(=O)C=C1CCC1C2C(O)CC2(C)C1CCC2(O)C(=O)COC(=O)C1C2C=CC(C2)C1C(=O)O (stereo unspecified)
Response line: 9.45

Prompt line: Using known records, supply growth inhibition for CCOC(=O)C1=CC(C)(C(=O)OCC)Nc2c(nc(N)[nH]c2=O)N1 (stereo unspecified)
Response line: -12.9

Prompt line: Using known records, supply growth inhibition for NC(=S)Nc1c(Cl)cc(Cl)cc1Cl
Response line: -8.9

Prompt line: Using known records, supply growth inhibition for CN(C)c1ccc(Cc2ccc(N(C)C)cc2)cc1
Response line: -6.3

Prompt line: Using known records, supply growth inhibition for COCCCn1cnn2c(=O)c3ccccc3nc2c1=O
Response line: 2.85

Prompt line: Using known records, supply growth inhibition for O=C(O)COc1c(Cl)cc(Cl)c2cccnc12
Response line: -3.85

Prompt line: Using known records, supply growth inhibition for O=C(N=c1nc(NC(=O)c2ccccc2)ss1)c1ccccc1
Response line: 7.7

Prompt line: Using known records, supply growth inhibition for NC=O
Response line: 11.2

Prompt line: Using known records, supply growth inhibition for N#C/C(=C\c1ccc(Cl)cc1)C(=O)N/N=C/c1ccc(Cl)cc1
Response line: 27.1

Prompt line: Using known records, supply growth inhibition for Cc1cc(=O)[nH]c(-n2[nH]c(C)c(CCO)c2=O)n1
Response line: -17.2

Prompt line: Using known records, supply growth inhibition for N#CCCCCC12C3C(=O)N(c4ccccc4)C(=O)C3ON1O[C@@H]1C(=O)N(c3ccccc3)C(=O)[C@@H]12 (stereo partly specified)
Response line: 19.3

Prompt line: Using known records, supply growth inhibition for O=C(O)c1cc(Cl)ccc1-c1ccc(Cl)cc1C(=O)Nc1ccc2c(c1)Cc1cc(Cl)cc(Cl)c1-2
Response line: 97.5

Prompt line: Using known records, supply growth inhibition for Cc1ccc(NC(=O)C(=O)CC(=O)c2c(C)n([O-])c3ccccc3[n+]2=O)cc1
Response line: 6.95

Prompt line: Using known records, supply growth inhibition for O=C(O)[Si](c1ccccc1)(c1ccccc1)c1ccccc1
Response line: 25.9

Prompt line: Using known records, supply growth inhibition for COc1ccc(C(=O)/C=C/c2ccncc2)cc1OC
Response line: 38.4

Prompt line: Using known records, supply growth inhibition for ON1c2ccc3ccccc3c2C=CC1(c1ccccc1)c1ccccc1
Response line: -2.75

Prompt line: Using known records, supply growth inhibition for O=C(OCCN1C(=O)c2cccc3c(Br)ccc(c23)C1=O)OCc1ccccc1
Response line: 48.5

Prompt line: Using known records, supply growth inhibition for COc1ccc(/C(=N\N=C(N)N)C(c2ccc(OC)cc2)C2OC(=O)c3ccccc32)cc1 (stereo unspecified)
Response line: -4.85

Prompt line: Using known records, supply growth inhibition for C=C1C(O)CCC2(C)C1CCC1C2CCC2(C)C(C(C)CCCC(C)C)CCC12 (stereo unspecified)
Response line: -5.35

Prompt line: Using known records, supply growth inhibition for O=C(O)C1(N(CCO)CCO)CCCC1
Response line: -11.7

Prompt line: Using known records, supply growth inhibition for Cc1ccc(-c2nc(SCc3ccc(Cl)cc3)[nH]c(=O)c2CCO)cc1
Response line: 14.3

Prompt line: Using known records, supply growth inhibition for CCCC1(CC)COC(c2ccc(C)cc2)OC1 (stereo unspecified)
Response line: 0.9

Prompt line: Using known records, supply growth inhibition for Cc1nn(C(=O)c2ccc(Cl)cc2)c2c1C(c1ccc(O)cc1)SC(N)=N2 (stereo unspecified)
Response line: -49.1

---

test method notes: NCI Yeast Anticancer Drug Screen. Data for the mlh1 rad18 strain (AID 175)
measurement context: S. cerevisiae mlh1 rad18 strain growth inhibition; at 50.0 µM; active compounds read high
Description: Growth inhibition of yeast strains with defined genetic alterations is measured as a screen for potential anti-cancer activity. Selected strains with alterations in DNA damage repair or cell cycle control were exposed to compounds and growth inhibition was measured relative to vehicle treated controls. The strain used in this assay is mlh1 rad18
About 79,000 compounds went through this panel and 15% of them were active in at least one assay; those are over-represented in the sample as a whole.
reported property: growth inhibition (%)
I only need the number, in %, no unit after it.

Prompt line: Using known records, supply growth inhibition for NC1=C(O)C(=O)C(c2ccccc2O)O1 (stereo not given)
Response line: -10.9

Prompt line: Using known records, supply growth inhibition for O=C(NCCN1CCOCC1)c1ccc(C(=O)NCCN2CCOCC2)cc1
Response line: 33.9

Prompt line: Using known records, supply growth inhibition for CCOC(=O)c1c[nH]c2cc(Cl)ccc2c1=O
Response line: -12.9

Prompt line: Using known records, supply growth inhibition for COC1CCC2C(C1)C(C1CCCCC1)C1CCCCC1C2C1CCCCC1 (stereo not given)
Response line: -7.65

Prompt line: Using known records, supply growth inhibition for Cc1ccc(S(=O)(=O)N2C(=N)C(=S)N(C)C2=O)cc1
Response line: 12.4

Prompt line: Using known records, supply growth inhibition for Cc1ccc(N=Nc2c(O)ccc3n[nH]nc23)cc1
Response line: 6.95

Prompt line: Using known records, supply growth inhibition for CCCCN(CCCC)CCCNC(=O)OCC
Response line: -6.2

Prompt line: Using known records, supply growth inhibition for COc1ccc(C2OCCCO2)cc1
Response line: 4.45

Prompt line: Using known records, supply growth inhibition for CC12CCC(=O)[C@@]1(C)CCCC2=O (stereo not given in full)
Response line: 5.05

Prompt line: Using known records, supply growth inhibition for COC(=O)CCCCCCC/C=N/Nc1ccc([N+](=O)[O-])cc1[N+](=O)[O-]
Response line: 17.4

Prompt line: Using known records, supply growth inhibition for COCn1ccnc1C(=O)c1ccccc1
Response line: -5.15

Prompt line: Using known records, supply growth inhibition for Cn1cc(C2(C)CC(C)(C)c3c2n(C)c2ccccc32)c2ccccc21 (stereo not given)
Response line: 2.95

Prompt line: Using known records, supply growth inhibition for COC(=O)C(CCc1ccccc1[N+](=O)[O-])C(=O)OC
Response line: 34.1

Prompt line: Using known records, supply growth inhibition for Cc1noc2cccc(OCc3ccccc3)c12
Response line: -9.2

Prompt line: Using known records, supply growth inhibition for [S-]c1n[n+](-c2ccccc2)c(-c2ccc(Cl)cc2)s1
Response line: 0.45
